src = PubChem BioAssay (EPA / NIEHS)

- assayName: CCTE_Harrill_HTTr_Viability_MCF7: CCTE's 6-hour Cell Viability Assessment for the High-Throughput Transcriptomics (HTTr) Platform, in MCF-7 cells cultured in DMEM + 10% fetal bovine serum, Harrill Lab (AID 2284010)
- Experimental: This is a cell-based assay that evaluates cell viability using high content imaging to evaluate membrane integrity using propidium iodide dye exclusion in a 384 well format.One of seven assay components measured from the CCTE_Harrill_HTTr_Viability assay. […] Measurements are taken at 6 hours after chemical dosing in 384-well format.The assay component endpoint CCTE_Harrill_HTTr_Viability_MCF7 was analyzed with bidirectional fitting relation to DMSO as the negative control and baseline of activity. […]
The source made the active and inactive calls. Rule for the calls: active = hit-call score of the fitted dose curve at least 0.9, where 1 is the maximum; inactive = score below 0.9.
Please answer using one outcome listed in 1 (yes) = active, 0 (no) = inactive

As a guide, the following entries are already answered.
compound	group
P.[In]	0 (no)
Cn1sc(Cl)cc1=O	0 (no)
CCCCCCCCC(=O)NCc1ccc(O)c(OC)c1	0 (no)
ClC1(Cl)C2(Cl)C3(Cl)C4(Cl)C(Cl)(Cl)C5(Cl)C3(Cl)C1(Cl)C5(Cl)C24Cl (stereo not given)	0 (no)
CNC	0 (no)

Any idea what this test logged for C[C@H]1O[C@@H](O[C@H]2[C@@H](O)C[C@H](O[C@H]3[C@@H](O)C[C@H](O[C@H]4CC[C@@]5(C)[C@H](CC[C@@H]6[C@@H]5CC[C@]5(C)[C@@H](C7=CC(=O)OC7)CC[C@]65O)C4)O[C@@H]3C)O[C@@H]2C)C[C@H](O)[C@@H]1O ? 0 (no)

Call for entry CC(C)(OO)c1ccccc1 : 0 (no)

Please state the recorded outcome for this compound: CC(C)OC(=O)Nc1ccccc1 0 (no)

// return assay outcome for CCNc1nc(NC(C)(C)C)nc(SC)n1 0 (no)

What outcome does the record of this test show for Nc1cccc2ccccc12 ? 1 (yes)

Entry CC(C)(C)CC(C)(C)c1ccc(O)cc1 : call = ? 0 (no)

Record lookup: outcome of this test for [O-][Cl+2]([O-])O ? 0 (no)

Give the logged outcome of this assay for the following compound: Cc1ccc(N)cc1Cl 0 (no)

Could you kindly confirm the outcome this assay logged for CC(=O)OC(c1ccccc1)C(Cl)(Cl)Cl (stereo not given) ? 0 (no)

In this assay, the call recorded for COP(=O)(OC)O/C(=C\Cl)c1cc(Cl)c(Cl)cc1Cl was what? 0 (no)

So what was the verdict on C[C@@H]1C[C@@H]([C@H](O)CC2CC(=O)NC(=O)C2)C(=O)[C@@H](C)C1 in this test? 0 (no)

Record request — test call for CCOP(=S)(OCC)Oc1nc(Cl)c(Cl)cc1Cl 0 (no)

How was Cc1ccc2ccccc2c1C classified in this test? 0 (no)

Which result was noted for this compound in the test: CCC(C)(C)c1ccc(O)c(C(C)(C)CC)c1 1 (yes)
